# Test system: MILI (PIWIL2) piRISC loaded with L1MC piRNA (26 nt);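 further: 1 nM active piRISC with 0.1 nM target library at 33 °C single turnover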
# Experimental Protocol: pre-steady-state target cleavage rate (min^-1); guide: L1MC piRNA 5'p-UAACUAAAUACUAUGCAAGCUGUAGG; MIWI and MILI are mouse PIWI proteins and EfPiwi is from a freshwater sponge; tags in brackets are library labels; higher = faster piRNA-guided slicing of the target
# Condition Summary: auxiliary factor: 500 nM mouse GTSF1
Result Type: pre-steady-state target cleavage rate
Keep the answer to the number alone.

Worked examples, 6 sequences total:
>>> observed_measurement("UCCUGGAUGAGGUUGGAUAGUAUUUAGUUA")
0.132
>>> observed_measurement("UCCUGCUACAGCUUGGAUAGAAUUUAGUUA")
0.0646
>>> observed_measurement("UCCUGGAUCAGCUUGCAUAGUAAAAACAAA")
0.027
>>> observed_measurement("UCCUGGAUGUGGUUGCAUAGUAUAUAGUUA")
0.158
>>> observed_measurement("UCCUGGAUGUCCUUGGAUAGUAUAUAGUUA")
0.165
>>> observed_measurement("UCCUGGAUGUGCUUGCAUACUAUUUAGUUA")
0.0281

Which pre-steady-state target cleavage rate value belongs to `UCCUGGAACAGCUUGCAUAGUAUGUUAGUUA` ?
0.243

Which pre-steady-state target cleavage rate value belongs to `UCCUGGAUGUGCUUGGAUAGUAUUUAGUAA` ?
0.117

Which pre-steady-state target cleavage rate value belongs to `UCCUGGUACAGCUUGGAUAGUAUUUAGAUA` ?
0.118

Which pre-steady-state target cleavage rate value belongs to `UCCUGGAUGUCCUUGCAUAGUAAUUUGUUA` ?
0.0222

Which pre-steady-state target cleavage rate value belongs to `UCCUGGAUGUCGUUGCAUAGUAGUUUAGUUA` ?
0.0297
